Examples of compounds with documented pIC50 follow.
Molecular target: ALPK1 (Homo sapiens (Human), UniProt Q96QP1)
Sequence (Q96QP1 whole entry): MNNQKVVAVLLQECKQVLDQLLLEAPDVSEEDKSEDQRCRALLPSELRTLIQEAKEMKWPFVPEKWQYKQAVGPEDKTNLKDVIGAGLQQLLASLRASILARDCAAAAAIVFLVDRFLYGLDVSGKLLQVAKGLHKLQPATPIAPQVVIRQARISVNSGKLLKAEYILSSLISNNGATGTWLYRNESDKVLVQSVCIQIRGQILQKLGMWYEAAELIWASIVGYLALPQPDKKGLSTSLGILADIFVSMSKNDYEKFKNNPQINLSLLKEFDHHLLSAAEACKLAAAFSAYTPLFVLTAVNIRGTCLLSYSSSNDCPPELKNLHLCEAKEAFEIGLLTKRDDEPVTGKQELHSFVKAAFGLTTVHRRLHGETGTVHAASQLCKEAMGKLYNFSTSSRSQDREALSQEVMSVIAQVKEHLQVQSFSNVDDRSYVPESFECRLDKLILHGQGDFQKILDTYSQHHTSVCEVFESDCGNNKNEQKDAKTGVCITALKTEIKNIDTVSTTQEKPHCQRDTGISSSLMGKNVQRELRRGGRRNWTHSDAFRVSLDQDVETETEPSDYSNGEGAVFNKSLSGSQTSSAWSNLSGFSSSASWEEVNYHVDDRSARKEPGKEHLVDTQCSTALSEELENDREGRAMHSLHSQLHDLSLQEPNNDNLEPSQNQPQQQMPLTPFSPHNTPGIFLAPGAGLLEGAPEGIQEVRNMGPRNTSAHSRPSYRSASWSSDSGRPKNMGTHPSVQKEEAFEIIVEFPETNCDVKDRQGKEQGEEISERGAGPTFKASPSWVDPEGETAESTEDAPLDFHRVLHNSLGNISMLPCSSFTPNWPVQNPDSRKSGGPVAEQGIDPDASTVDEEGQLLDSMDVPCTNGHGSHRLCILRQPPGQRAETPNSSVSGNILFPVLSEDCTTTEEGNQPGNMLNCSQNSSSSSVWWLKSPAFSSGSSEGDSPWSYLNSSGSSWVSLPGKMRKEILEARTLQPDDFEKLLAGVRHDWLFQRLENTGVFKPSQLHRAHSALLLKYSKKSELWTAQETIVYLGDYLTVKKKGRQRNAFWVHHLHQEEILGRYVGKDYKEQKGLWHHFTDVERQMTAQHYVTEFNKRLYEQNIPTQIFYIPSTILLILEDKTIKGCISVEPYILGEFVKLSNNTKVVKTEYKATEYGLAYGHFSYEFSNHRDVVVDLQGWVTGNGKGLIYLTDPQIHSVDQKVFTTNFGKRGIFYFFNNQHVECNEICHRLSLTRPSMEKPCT
Test: ALPK1 in vitro kinase assay (HTRF of TIFA phosphorylation)
Assay type: biochemical
Excerpt: In embodiments, a compound of Formula I, or a subembodiment described herein, is an inhibitor of ALPK1 as measured, for example, in an in vitro kinase assay, or an assay designed to measure the activation of downstream targets of ALPK1 pathway activation, for example NFkB transcriptional activation and the secretion of proinflammatory cytokines and chemokines, such as IL-8, which is also referred to as CXCL-8. […]
pIC50: −log10 of the molar value.
experimental-endpoint: pIC50

compound=CC(C)(c1ccc(Br)cc1)c1csc(NC(=O)NCc2ccc(CN3CCNCC3)c(F)c2)n1 observed_value=7.40
compound=COc1ccc(C(C)(C)c2csc(NC(=O)NCc3cnc(N4CCNC(=O)C4)c(F)c3)n2)cc1 observed_value=6.68
compound="[2H]C([2H])(O)CNC(=O)Nc1nc([C@@](C)(C#C)c2ccc(Cl)cc2)cs1 (stereo in doubt)" observed_value=7.55
compound=C#C[C@@](C)(c1ccc(F)cc1)c1csc(NC(=O)NCCS(N)(=O)=O)n1 observed_value=6.46

====

Examples of compounds with documented pIC50 follow.
molecular target: UniProt:Q96QP1; assay: ALPK1 in vitro kinase assay (HTRF of TIFA phosphorylation); type: biochemical
pIC50: −log10 of the molar value.
experimental-endpoint: pIC50

compound="C#C[C@](C)(c1ccc(Cl)cc1)c1csc(NC(=O)N2CC(CN3CCNCC3)C2)n1 (stereo in doubt) [Example A291]" observed_value=6.96
compound="CC(C)(c1ccc(Br)cc1)c1csc(NC(=O)NCc2ccc(C(N)=O)cc2)n1 [Example A008]" observed_value=8.10
compound="COc1ccc(C(C)(C)c2csc(NC(=O)NCCc3ccncc3)n2)cc1 [Example A124]" observed_value=6.78
compound="COc1ccc(C(C)(C)c2csc(NC(=O)NC(C)c3cc(F)c(N4CCNCC4)c(F)c3)n2)cc1 (centres unmarked) [Example A152]" observed_value=7.26
compound="C#C[C@@](C)(c1ccc(Cl)cc1)c1csc(NC(=O)NCCO)n1 [Example A176]" observed_value=8.27
compound="C#C[C@](C)(c1ccc(Cl)cc1)c1csc(NC(=O)NC2(CO)CC2)n1 [Example A296]" observed_value=6.94
compound="CC(C)(c1ccc(Br)cc1)c1csc(NC(=O)NCc2cnc(N3CCNC(=O)C3)c(F)c2)n1 [Example A112]" observed_value=6.48
compound="COc1ccc(C(C)(C)c2csc(NC(=O)NC3CCC(O)CC3)n2)cc1 (centres unmarked) [Example A122]" observed_value=6.66

====

Examples of compounds with documented IC50 follow.
molecular target: ALPK1 (Homo sapiens (Human), UniProt Q96QP1); experiment: ALPK1 in vitro kinase assay (HTRF of TIFA phosphorylation); format: biochemical; conditions: ALPK1 2 nM, TIFA substrate, ADP-Heptose activator, HTRF readout
experimental-endpoint: IC50 (nM)

compound="C#C[C@@](C)(c1ccc(Cl)cc1)c1nc(NC(=O)c2c(F)cc(N3CCNCC3)cc2F)sc1Cl [Example C020]" result_units=nM observed_value=88
compound="C#C[C@](C)(c1ccc(Cl)cc1)c1csc(NC(=O)c2c(F)cc(N3CCC(N)C3)cc2F)n1 (stereo in doubt) [Example B085]" result_units=nM observed_value=395
compound=C#C[C@@](C)(c1ccc(Cl)cc1)c1csc(NC(=O)c2c(F)cc(N3CCN(CCO)CC3)cc2F)n1 result_units=nM observed_value=60
compound="C#CC(C)(c1ccc(Cl)cc1)c1csc(NC(=O)c2c(F)cc(N3CCNC(CO)C3)cc2F)n1 (stereo not shown)" result_units=nM observed_value=78

====

biological target: ALPK1 (Homo sapiens (Human), UniProt Q96QP1); test: ALPK1 in vitro kinase assay (HTRF of TIFA phosphorylation); format: biochemical; details: ALPK1 2 nM, TIFA substrate, ADP-Heptose activator, HTRF readout
Where a name gives a salt, the structure may show the parent alone.
Examples of molecules with documented IC50 follow.
experimental-endpoint: IC50 (nM)

molecule=COC[C@@](C)(c1ccccc1)c1csc(NC(=O)c2c(F)cc(N3CCNCC3)cc2F)n1 observed_value=36
molecule="C#CC(C)(c1ccc(OC)cc1)c1csc(NC(C)=O)n1 (stereo not shown)" observed_value=196
molecule="C#CC(C)(c1ccc(OC)cc1)c1csc(NC(=O)c2c(F)cc(N3CCNCC3CO)cc2F)n1 (stereo not shown)" observed_value=21
molecule=COC[C@](C)(c1ccccc1)c1csc(NC(=O)c2c(F)cc(N3CCNCC3)cc2F)n1 observed_value=67
molecule="C#C[C@](C)(c1ccc(Cl)cc1)c1csc(NC(=O)c2ccc(N3CCNC(CO)C3)cc2)n1 (stereo partly shown)" observed_value=169
molecule=COc1ccc(C(C)(C)c2csc(NC(=O)c3ccc(OC4CCN(CCO)CC4)cc3)n2)cc1 observed_value=170
molecule="COc1ccc(C(C)(C)c2csc(NC(=O)c3ccc(C4CCNCC4)cc3)n2)cc1 [Example B047, hydrochloride]" observed_value=128
molecule="C#CC(C)(c1ccc(F)cc1)c1csc(NC(=O)c2c(F)cc(N3CCNCC3CO)cc2F)n1 (stereo not shown)" observed_value=30
molecule="C#CC(C)(c1ccc(Cl)cc1)c1csc(NC(C)=O)n1 (stereo not shown)" observed_value=18
molecule="COCC(C)(c1ccc(Br)cc1)c1csc(NC(=O)c2c(F)cc(N3CCNCC3)cc2F)n1 (stereo not shown) [Example C014]" observed_value=13
molecule="C#C[C@@](C)(c1ccc(F)cc1)c1csc(NC(=O)c2ccc(N3CCNCC3CO)cc2)n1 (stereo in doubt) [Example B069]" observed_value=20
molecule="COCC(C)(c1ccc(OC)cc1)c1csc(NC(=O)c2c(F)cc(N3CCNCC3)cc2F)n1 (stereo not shown) [Example C028]" observed_value=288
molecule="C#CC(C)(c1ccc(OC(F)F)cc1)c1csc(NC(=O)c2c(F)cc(N3CCNCC3)cc2F)n1 (stereo not shown)" observed_value=73
molecule=COc1ccc(C(C)(C)c2csc(NC(=O)c3ccc(N4CCN(CCO)CC4)cc3)n2)cc1 observed_value=595
molecule=C#C[C@](C)(c1ccc(Cl)cc1)c1csc(NC(=O)c2c(F)cc(N3CCN(CCO)CC3)cc2F)n1 observed_value=188
molecule="COCC(C)(c1ccccc1)c1csc(NC(=O)c2c(F)cc(N3CCNCC3)cc2F)n1 (stereo not shown)" observed_value=22

====

molecular target: ALPK1 (Homo sapiens (Human)); assay: ALPK1 in vitro kinase assay (HTRF of TIFA phosphorylation); assay type: biochemical
Counter-ions that a name gives are not always drawn.
So basically, if IC50 comes in under 100 nM it's 1, and if it's 100 nM or more it's -1.

compound="C#CC(C)(c1ccc(Br)cc1)c1csc(NC(=O)N2CC(O)C2)n1 (stereo not shown) [Example A153]" group_label=1
compound="COc1ccc(C(C)(C)c2csc(NC(=O)NCC3CC(N)C3)n2)cc1 (stereo not shown) [Example A190]" group_label=-1
compound="CC(C)(c1ccc(Br)cc1)c1csc(NC(=O)NCCCS(N)(=O)=O)n1 [Example A132]" group_label=1
compound="C#CC(C)(c1ccc(Cl)cc1)c1csc(NC(=O)NO)n1 (stereo not shown) [Example A271]" group_label=-1
compound="C#CC(C)(c1ccc(Cl)cc1)c1csc(NC(=O)N2CCC(O)C2)n1 (stereo not shown) [Example A269]" group_label=-1
compound="COc1ccc(C(C)(C)c2csc(NC(=O)NCc3ccc(CN4CCNCC4)c(F)c3)n2)cc1 [Example A037]" group_label=1
compound="C#C[C@](C)(c1ccc(Br)cc1)c1csc(NC(=O)NCCO)n1 [Example A161]" group_label=1
compound="CC(C)(c1ccc(Br)cc1)c1csc(NC(=O)NCc2ccc(CN3CCNCC3)cc2)n1 [Example A026]" group_label=-1
compound="CC(C)(c1ccc(Br)cc1)c1csc(NC(=O)NCc2ccc(N3CCC(O)C3)cc2)n1 (stereo not shown) [Example A009]" group_label=-1
compound="C#C[C@](C)(c1ccc(Cl)cc1)c1csc(NC(=O)NCCC(C)(C)O)n1 [Example A250]" group_label=-1
compound="C#CC(C)(c1ccc(Cl)cc1)c1csc(NC(=O)N2CC(CN3CCC(N)CC3)C2)n1 (stereo not shown) [Example A263]" group_label=1
compound="CC(C)(c1ccc(Br)cc1)c1csc(NC(=O)NCc2ccc(OCCN3CCNCC3)cc2)n1 [Example A034]" group_label=-1
compound="COc1ccc(C(C)(C)c2csc(NC(=O)NCc3cc(F)c(N4CCNCC4)cc3F)n2)cc1 [Example A231, hydrochloride]" group_label=1
compound="COc1ccc(C(C)(C)c2csc(NC(=O)NCc3ccc(N4CCNCC4)cc3)n2)cc1 [Example A053]" group_label=1
compound="COc1ccc(C(C)(C)c2csc(NC(=O)NCc3ccc(N4CCNCC4)c(C(=O)N(C)C)c3)n2)cc1 [Example A185]" group_label=1
compound="CC(C)(c1ccc(Br)cc1)c1csc(NC(=O)NCCCN2CCC(O)C2)n1 (stereo not shown) [Example A129]" group_label=1
compound="C#C[C@](C)(c1ccc(Cl)cc1)c1csc(NC(=O)NCC2(O)CNC2)n1 (stereo in doubt) [Example A286]" group_label=-1
compound="CC(C)(c1ccc(Br)cc1)c1csc(NC(=O)NCc2ccc(N3CCC(N)C3)cc2)n1 (stereo not shown) [Example A032]" group_label=-1
compound="C#CC(C)(c1ccc(Br)cc1)c1csc(NC(=O)NCC(O)CO)n1 (stereo not shown) [Example A156]" group_label=1
compound="CN1CCN(Cc2c(F)cc(CNC(=O)Nc3nc(C(C)(C)c4ccc(Br)cc4)cs3)cc2F)CC1 [Example A117]" group_label=1
compound="COc1ccc(C(C)(C)c2csc(NC(=O)NCc3ccc(N4CC5CC4CN5)c(C(N)=O)c3)n2)cc1 (stereo not shown) [Example A064]" group_label=1
compound="COc1ccc(C(C)(C)c2csc(NC(=O)NCc3ccc(N4CCC(N)C4)cn3)n2)cc1 (stereo not shown) [Example A200]" group_label=1
compound="Cc1cc(N2CCNCC2)ccc1CNC(=O)Nc1nc(C(C)(C)c2ccc(Br)cc2)cs1 [Example A051]" group_label=-1
compound="COc1ccc(C(C)(C)c2csc(NC(=O)NCc3ccc(N(C)CCO)nc3)n2)cc1 [Example A023]" group_label=-1
compound="C#CC(C)(c1ccc(Cl)cc1)c1csc(NC(=O)NCc2ccc(N3CCNCC3)c(F)c2)n1 (stereo not shown) [Example A262]" group_label=1
